Source of measurements: ChEMBL document CHEMBL1201862

Would you kindly list GI50 for each of these compounds?
- Tested on: K562
- test: NCI tumour cell line growth inhibition, 48 h
Active and inactive are the calls of the source. No stated cut-off is given here; in the data, active = GI50 up to about 1.1 µM and inactive = higher.

These recorded examples may help you get a feel for the data.
[[record]]
compound = "CC(C)CCC1(O)O[C@H]2C[C@H]3[C@@H]4CCC5CC(=O)C=C[C@]5(C)[C@H]4CC[C@]3(C)[C@H]2[C@@H]1C (stereo not given in full)"
measured_attribute = "GI50"
result = "5.07 µM (inactive)"

[[record]]
compound = "COC(=O)NCCc1n[nH]c2c1C(=O)C=C(Nc1ccccc1OC)C2=O"
measured_attribute = "GI50"
result = "30 µM (inactive)"

[[record]]
compound = "CC1(C)C2=CCCC(=O)[C@@]2(C)CC[C@@H]1O"
measured_attribute = "GI50"
result = "> 100 µM (inactive)"

[[record]]
compound = "CC(=NNC(=S)Nc1cccc(C)c1)c1cccc(C(C)=NNC(=S)Nc2cccc(C)c2)n1"
measured_attribute = "GI50"
result = "17.1 µM (inactive)"


Please examine the following record next.
Which GI50 reading was recorded for the compound CCOc1ccccc1N1CSc2nnc(-c3ccccc3)n2C1 ?
> 100 µM (inactive)

* * *

- System: HCC 2998
- test: NCI tumour cell line growth inhibition, 48 h
Active and inactive are the calls of the source. Cut-off read from the data, not from the text of the source: active = GI50 up to about 1.1 µM and inactive = higher.
Your answer must be one of the following: 1.0 = active, 0.0 = inactive

Examples with answers:
[[record]]
molecule = "COC(=O)[C@H](Cc1ccccc1)NC(=O)OCC1OC(n2cc(C)c(=O)[nH]c2=O)CC1N=[N+]=[N-] (some centres undefined)"
target = "HCC 2998"
class = 0.0

[[record]]
molecule = "CC(C)=CC(=O)C[C@H]1C(=O)O[C@@H]2C[C@H]3C(C)=CC(=O)[C@@H](O)[C@]3(C)[C@H]3[C@@]4(O)OC[C@]32[C@@H]1[C@@H](C)[C@H]4O"
target = "HCC 2998"
class = 1.0


Please share the test call associated with O=C1C(Cl)C2(CC(/C=C/c3ccccc3O)=NN2c2cccc(S(=O)(=O)O)c2)N1c1nc2ccccc2s1 (centres undefined) .
0.0

Try Oc1cccc(-c2cc(=S)ss2)c1 next.
0.0

* * *

- Test system: NCI-H522
- test: NCI tumour cell line growth inhibition, 48 h
Where a name gives a salt, the structure may show the parent alone. Calls of active or inactive are those of the source. No stated cut-off is given here; in the data, active = GI50 up to about 1.1 µM and inactive = higher.
Please go through the items and note down their GI50.

Before answering, review these 5 worked examples.
[[record]]
molecule = "COC(=O)C(N)CCCC(N)C(=O)NC(C)C(=O)NC(CCC(=O)NCCNCCNc1c2ccccc2nc2cccc([N+](=O)[O-])c12)C(N)=O (stereo unspecified)"
target = "NCI-H522"
measured_attribute = "GI50"
result = "1.65 µM (inactive)"

[[record]]
molecule = "C(=C1\\CCC/C(=C/c2ccccc2)C1=NNc1ccccc1)/c1ccccc1"
target = "NCI-H522"
measured_attribute = "GI50"
result = "> 100 µM (inactive)"

[[record]]
molecule = "COC(=O)CC(C#N)(OP1(=O)OC(c2ccccc2)C(C)N1C)c1ccccc1 (stereo unspecified)"
target = "NCI-H522"
measured_attribute = "GI50"
result = "59 µM (inactive)"

[[record]]
molecule = "Cc1cc(-c2nc3cc(F)ccc3s2)ccc1NC(=O)[C@@H](N)CCCCN"
target = "NCI-H522"
measured_attribute = "GI50"
result = "5.46 µM (inactive)"

[[record]]
molecule = "Oc1ccc(C(O)C2CCCCN2)cc1O (stereo unspecified) [RIMITEROL HYDROBROMIDE]"
target = "NCI-H522"
measured_attribute = "GI50"
result = "> 100 µM (inactive)"


Next item in the queue.
Entry O=C1Cc2nc(CO)c(CO)c(CO)c2CO1 : reported GI50 = ?
> 100 µM (inactive)
